system-name: S. pyogenes SKKanGAS, kanamycin survival, BacTiterGlo, 6 h
experiment-notes: S. pyogenes SKKanGAS kanamycin growth inhibitors – SKKanGAS strain, luminescence, dose confirmation, streptokinase promoter inhibitor project, dose response (AID 1902);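 note: lower survival reflects blocked streptokinase promoter driving kanamycin resistance gene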
Activity calls are given as the source filed them.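 Rule for the calls: active = EC50 no more than a set limit of log units above the highest dose; inactive = the rest.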
I would appreciate it if you answered using one of these outcomes: active, inactive

Q. Outcome? O=C(OCc1csc(Nc2ccccc2)n1)c1ccc(Cl)cc1
A. active

Q. Outcome? CC(C)CN(C(=O)COc1ccc(-c2nnco2)cc1)C1CCS(=O)(=O)C1 (stereo not given)
A. inactive

Q. Outcome? CN1C(=O)/C(=C/c2ccccc2F)Sc2ccc(C(=O)NCC3CCCO3)cc21 (stereo not given)
A. active

Q. Outcome? CCCOc1ccc(C(=O)NNC(=S)NC(=O)c2ccccc2[N+](=O)[O-])cc1
A. active

Q. Outcome? Cc1ccc(C(c2cc(Cl)c3cccnc3c2O)N2CCN(C)CC2)cc1 (stereo not given)
A. active

Q. Outcome? COc1ccccc1C(NC(C)=O)c1cc(Cl)c2cccnc2c1O (stereo not given)
A. active

Q. Outcome? NC(=O)c1ccc(NC(=O)COC(=O)c2c3c(nc4ccccc24)/C(=C\c2ccc4c(c2)OCO4)CCC3)cc1
A. active

Q. Outcome? CC(C)NC(=S)NC(c1ccccc1)(c1ccccc1)c1ccccc1
A. active

Q. Outcome? CC(=O)NNC(=S)NC(=O)C(c1ccccc1)c1ccccc1
A. active

Q. Outcome? CC(C)Nc1nc(NC(C)C)nc(N(C)N)n1
A. active

Q. Outcome? CC1Oc2cc3oc4c(O)c5c(cc4c(=O)c3c(O)c2C1(C)C)C=CC(C)(C)O5 (stereo not given)
A. active

Q. Outcome? Cc1ccc(Cn2cc(/C=N/NC(=O)Cc3nnc(NC(=O)c4ccc(C)cc4)s3)c3ccccc32)cc1
A. active

Q. Outcome? Cc1ccc(Cl)cc1N1CCN(C(=O)c2cn(C)c(=O)c3c2c2ccccc2n3C)CC1
A. active

Q. Outcome? Cc1nn(C(C)C(=O)NC2C(=O)N3C(C(=O)O)=C(CSc4nnnn4C)CSC23)cc1Cl (stereo not given)
A. active

Q. Outcome? O=C(N/N=C/c1c(O)n(-c2ccccc2Cl)c(=O)c2ccccc12)C1COc2ccccc2O1 (stereo not given)
A. active

###

Would you kindly list pEC50 for each of these molecules?
system-name: S. pyogenes SKKanGAS, kanamycin survival, BacTiterGlo, 6 h
experiment-notes: S. pyogenes SKKanGAS kanamycin growth inhibitors – SKKanGAS strain, luminescence, dose confirmation, streptokinase promoter inhibitor project, dose response (AID 1902)
pEC50: −log10 of the molar value.

Q. Return reported pEC50; argument: CCOC(=O)C1=C(N)Oc2ccc3ccccc3c2C1c1ccc(O)cc1 (configuration not stated)
A. 5.25

Q. Return reported pEC50; argument: O=C(Nc1ccc(Oc2ccc(Cl)cc2)c(Cl)c1)c1cc(I)cc(I)c1O
A. > 7.22

Q. Return reported pEC50; argument: CCc1c(O)nc(SCC(=O)Nc2nc3ccccc3s2)n(C2CCCCC2)c1=O
A. 5.05

Q. Return reported pEC50; argument: COc1ccc(OC)c(CCNC(=O)C(=O)Nc2ccc3nc4n(c(=O)c3c2)CCCCC4)c1
A. 4.99

Q. Return reported pEC50; argument: Cc1cccc(/C=N/NC(=O)Cc2ccc(Cl)cc2)c1O
A. 5.45

Q. Return reported pEC50; argument: Cc1cccc(/C=N/NC(=O)c2ccccc2OCc2cccc(Br)c2)n1
A. 5.18

Q. Return reported pEC50; argument: Cc1ccc(C)c(N2CCN(C(=O)CCCCCn3c(=S)[nH]c4ccc(N5CCOCC5)cc4c3=O)CC2)c1
A. 5.10

###

system-name: S. pyogenes SKKanGAS, kanamycin survival, BacTiterGlo, 6 h
experiment-notes: S. pyogenes SKKanGAS kanamycin growth inhibitors – SKKanGAS strain, luminescence, dose confirmation, streptokinase promoter inhibitor project, dose response (AID 1902);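 note: lower survival reflects blocked streptokinase promoter driving kanamycin resistance gene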
recorded-metric: EC50

Q. Kindly state the measured EC50 obtained for Nc1nc(CN2CCN(c3ccccc3)CC2)nc(N2CCCc3ccccc32)n1 with S. pyogenes SKKanGAS, kanamycin survival, BacTiterGlo, 6 h.
A. 0.879 µM

Q. Kindly state the measured EC50 obtained for Cc1cc2n(n1)C(c1c[nH]c3ccccc13)Nc1ccccc1-2 (stereo not drawn) with S. pyogenes SKKanGAS, kanamycin survival, BacTiterGlo, 6 h.
A. 7.65 µM

Q. Kindly state the measured EC50 obtained for CCCNC(=O)c1ccc(N2CCC3(CC2)CC(c2ccccc2)=NO3)c(NC(=O)c2ccco2)c1 with S. pyogenes SKKanGAS, kanamycin survival, BacTiterGlo, 6 h.
A. 8 µM

###

system-name: S. pyogenes SKKanGAS, kanamycin survival, BacTiterGlo, 6 h
experiment-notes: S. pyogenes SKKanGAS kanamycin growth inhibitors – SKKanGAS strain, luminescence, dose confirmation, streptokinase promoter inhibitor project, dose response (AID 1902);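 note: lower survival reflects blocked streptokinase promoter driving kanamycin resistance gene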
Would you kindly list pEC50 for each of these molecules?
Expect pEC50 as a plain number equal to -log10 of the molar concentration.

Q. Return reported pEC50; argument: Cc1ccccc1NC1=C/C(=N\S(=O)(=O)c2ccc(C(=O)O)cc2)c2ccccc2C1=O
A. 5.72

Q. Return reported pEC50; argument: O=C(NNC(=S)Nc1ccc(Cl)c(Cl)c1)c1ccccn1
A. 5.78

Q. Return reported pEC50; argument: O=c1c([N+](=O)[O-])cccn1Cc1ccc(F)cc1Cl
A. 5.47

Q. Return reported pEC50; argument: O=C(Nc1cc([N+](=O)[O-])ccc1O)c1cccc(NC(=O)c2ccco2)c1
A. 5.56

Q. Return reported pEC50; argument: Cc1ccc(NC(=S)N=Nc2c(O)[nH]c3ccccc23)cc1
A. 6.20

Q. Return reported pEC50; argument: Cc1cc(C(=O)N/N=C/c2ccc([N+](=O)[O-])s2)n[nH]1
A. 5.62

Q. Return reported pEC50; argument: O=S(=O)(Nc1cccc(-c2ccc(N3CCOCC3)nn2)c1)c1ccc(Cl)c(Cl)c1
A. 5.02

Q. Return reported pEC50; argument: Nc1c(-c2ccccc2)c(CSc2nc3ccccc3[nH]2)nn1-c1cccc(Cl)c1
A. 5.82

Q. Return reported pEC50; argument: O=C1NC[C@@H](Cc2cccc3ccccc23)N(CCCCC2CCCCC2)C1=O
A. 5.41

###

system-name: S. pyogenes SKKanGAS, kanamycin survival, BacTiterGlo, 6 h
experiment-notes: S. pyogenes SKKanGAS kanamycin growth inhibitors – SKKanGAS strain, luminescence, dose confirmation, streptokinase promoter inhibitor project, dose response (AID 1902);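 note: lower survival reflects blocked streptokinase promoter driving kanamycin resistance gene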
Active and inactive are the calls of the source.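 How the source made its calls: active means EC50 no more than a set limit of log units above the highest dose; inactive means the rest.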
I would appreciate it if you answered using one of these outcomes: active, inactive

Q. Outcome? Clc1ccccc1CN(Cc1ccccc1)c1ncnc2nc[nH]c12
A. active

Q. Outcome? Cc1nn(-c2ccccc2)c(Cl)c1C1C(C#N)=C(N)OC2=C1C(=O)CCC2 (centres undefined)
A. active

Q. Outcome? Cc1ccc(Oc2ccc3c(c2)C(=O)N(c2cccc4cccnc24)C3=O)cc1
A. active

Q. Outcome? O=C(NNC(=S)NC(=O)c1ccccc1)c1ccc([N+](=O)[O-])cc1
A. active

Q. Outcome? Fc1ccccc1N=C1NN=C(c2ccccc2)CS1
A. active

Q. Outcome? CC(C)(C)c1cc(NCc2ccccn2)n2ncc(-c3ccccc3)c2n1
A. active

Q. Outcome? CN(CC1CCCO1)S(=O)(=O)c1ccc(C(=O)Nc2nnc(-c3ccccc3)o2)cc1 (centres undefined)
A. active

Q. Outcome? CCN1CCN(Cc2ccc(NC(=O)c3ccc(C)c(NC(=O)C(=O)c4c[nH]c5ccccc45)c3)cc2C(F)(F)F)CC1
A. active

Q. Outcome? O=[N+]([O-])c1ccc(NC(=S)NCCc2ccc(Cl)cc2)cc1
A. active

Q. Outcome? COc1ccccc1Sc1nc(-c2ccccn2)ncc1OC
A. active

Q. Outcome? CC(C)(C)c1ccc(C(=O)NNC(=S)NC(=O)c2cccnc2)cc1
A. active

Q. Outcome? CCCCCCCOC(=O)C[N+](C)(C)CCOC1CC2CCC1(C)C2(C)C (centres undefined)
A. active

Q. Outcome? O=C(O)C(c1ccccc1)N1C(=O)/C(=C\c2ccc(-c3cccc(Cl)c3)o2)SC1=S (centres undefined)
A. active

Q. Outcome? CC(C)=CCc1c(O)cc2c(c1O)C(=O)CC(c1ccc(O)cc1)O2 (centres undefined)
A. active

Q. Outcome? Cc1cccc(/C=C/C(=O)c2cc(Br)ccc(=O)c2O)c1
A. active

Q. Outcome? Cc1cc(C)cc(C(=O)NC2C(=O)N3C(C(=O)O)=C(CSc4nnc(C)s4)CSC23)c1 (centres undefined)
A. active

Q. Outcome? C/C(=N/NC(=O)CNC(=O)c1cccnc1)c1cccc([N+](=O)[O-])c1
A. inactive

Q. Outcome? O=C(O)c1cc(-c2ccc(-c3c(-c4ccc5c(c4)OCO5)noc3-c3ccsc3)cc2)nc2ccccc12
A. active

Q. Outcome? COc1ccc(Nc2ncnc3scc(-c4ccc(OC)cc4)c23)cc1
A. inactive

Q. Outcome? COc1ccccc1C(=O)NNC(=S)NC(=O)c1sc2ccccc2c1Cl
A. active

Q. Outcome? COc1ccc(C#Cc2ccc3c(=O)c4ccccc4n(C)c3c2)cc1
A. active

Q. Outcome? Fc1ccc(-c2cc(C(F)(F)F)nc(N3CCCCC3)n2)cc1
A. active

Q. Outcome? Cc1cc(C)c(COc2ccc(/C=N/n3c(C)n[nH]c3=S)cc2)c(C)c1
A. active

Q. Outcome? C/C(=N\NC(=O)COc1ccccc1-c1ccccc1)c1ccccn1
A. active
